Experiment: total protein half-life in vivo (active degradation + dilution); higher = more stable protein
Details: wild type E. coli NCM3722; growth: C-lim chemostat; doubling time 3 h
Tick rule met if total protein half-life in vivo is 3 h or greater. Tick rule not met if total protein half-life in vivo is less than 3 h.

Could you tell me if the measured total protein half-life in vivo of `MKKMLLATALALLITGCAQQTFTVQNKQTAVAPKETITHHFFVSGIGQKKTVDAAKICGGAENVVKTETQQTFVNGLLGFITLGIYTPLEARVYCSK` reaches 3 h or more?
rule met

Could you tell me if the measured total protein half-life in vivo of MKPSSSNSRSKGHAKARRKTREELDQEARDRKRQKKRRGHAPGSRAAGGNTTSGSKGQNAPKDPRIGSKTPIPLGVTEKVTKQHKPKSEKPMLSPQAELELLETDERLDALLERLEAGETLSAEEQSWVDAKLDRIDELMQKLGLSYDDDEEEEEDEKQEDMMRLLRGN [P0A8H6] reaches 3 h or more?
rule not met

Could you tell me if the measured total protein half-life in vivo of `MNTFSQVWVFSDTPSRLPELMNGAQALANQINTFVLNDADGAQAIQLGANHVWKLNGKPDDRMIEDYAGVMADTIRQHGADGLVLLPNTRRGKLLAAKLGYRLKAAVSNDASTVSVQDGKATVKHMVYGGLAIGEERIATPYAVLTISSGTFDAAQPDASRTGETHTVEWQAPAVAITRTATQARQSNSVDLDKARLVVSVGRGIGSKENIALAEQLCKAIGAELACSRPVAENEKWMEHERYVGISNLMLKPELYLAVGISGQIQHMVGANASQTIFAINKDKNAPIFQYADYGIVGDAVKILPALTAALAR` reaches 3 h or more?
rule not met
